measurementDescription: Inhibition of Plasmodium falciparum falcipain-2 after 12 hrs by fluorescence spectroscopy-based on-bead assay
Design: concentration or dose not given beside the values
conditionDescription: concentration not given here
Peptide text beside a SMILES is read from it.
valueType: inhibition (%)
Give the number; % is assumed, so skip it.

# molecule, valueType, quantitativeResult
records = [
    ("CC(C)C[C@H](NC(=O)[C@@H](NC(=O)[C@H](C)NC(=O)/C=C/C(=O)N[C@@H](C)C(=O)NCC(=O)N[C@@H](Cc1ccccc1)C(=O)O)c1ccccc1)C(=O)N[C@H](C(N)=O)C(C)C (HELM PEPTIDE1{[C[C@H](NC(=O)/C=C/C(=O)[*:2])C(=O)NCC(=O)N[C@@H](Cc1ccccc1)C(=O)O].A.[Phg].L.V.[am]}$$$$V2.0)", "inhibition", 55),
    ("CC(C)[C@H](NC(=O)[C@@H](NC(=O)[C@@H](NC(=O)[C@H](C)NC(=O)/C=C/C(=O)NCC(=O)NCC(=O)N[C@@H](Cc1ccccc1)C(=O)O)C1CCCCC1)C(C)C)C(N)=O (HELM PEPTIDE1{[O=C(/C=C/C(=O)[*:2])NCC(=O)NCC(=O)N[C@@H](Cc1ccccc1)C(=O)O].A.[O=C([C@@H](N[*:1])C1CCCCC1)[*:2]].V.V.[am]}$$$$V2.0)", "inhibition", 54),
]

Please examine the following record next.
Challenge: Query inhibition for CC(C)[C@H](NC(=O)[C@H](C)NC(=O)[C@@H](NC(=O)[C@H](C)NC(=O)/C=C/C(=O)N[C@@H](C)C(=O)NCC(=O)N[C@@H](Cc1ccccc1)C(=O)O)c1ccccc1)C(N)=O (HELM PEPTIDE1{[C[C@H](NC(=O)/C=C/C(=O)[*:2])C(=O)NCC(=O)N[C@@H](Cc1ccccc1)C(=O)O].A.[Phg].A.V.[am]}$$$$V2.0)
Response given: 57

###

targetOrSystem: UniProt:Q95PM0
Sequence (Q95PM0 1-450): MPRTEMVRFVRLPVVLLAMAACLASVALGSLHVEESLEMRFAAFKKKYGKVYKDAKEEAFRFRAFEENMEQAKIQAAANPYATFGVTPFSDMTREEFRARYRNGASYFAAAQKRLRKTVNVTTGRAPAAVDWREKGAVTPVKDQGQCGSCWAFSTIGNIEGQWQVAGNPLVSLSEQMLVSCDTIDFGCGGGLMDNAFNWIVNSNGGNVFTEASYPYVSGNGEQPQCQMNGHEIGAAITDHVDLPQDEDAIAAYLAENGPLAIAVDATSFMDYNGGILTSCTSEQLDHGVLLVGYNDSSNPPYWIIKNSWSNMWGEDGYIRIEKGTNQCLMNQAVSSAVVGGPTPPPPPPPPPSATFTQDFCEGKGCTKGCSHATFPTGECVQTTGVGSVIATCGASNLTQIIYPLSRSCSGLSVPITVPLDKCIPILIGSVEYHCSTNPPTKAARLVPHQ
measurementDescription: Inhibition of Trypanosoma brucei rhodesiense rhodesain after 12 hrs by fluorescence spectroscopy-based on-bead assay
Set-up: concentration or dose not given beside the values
conditionDescription: concentration not given here
Square brackets hold non-standard residues; d marks the D form. Peptide text beside a SMILES is read from it. * marks the point of attachment. Fumaroyl(AlaGlyPheOH) = C[C@H](NC(=O)/C=C/C(=O)*)C(=O)NCC(=O)N[C@@H](Cc1ccccc1)C(=O)O; Chg = N[C@H](C(=O)O)C1CCCCC1; Dap = NC[C@H](N)C(=O)O
valueType: inhibition (%)
Use % as the unit, but write only the number.

Example entries begin here.
# compound, uom, inhibition
measured = [
    ("CC(C)C[C@H](NC(=O)[C@H](Cc1ccccc1)NC(=O)[C@H](CCC(N)=O)NC(=O)/C=C/C(=O)NCC(=O)NCC(=O)N[C@@H](Cc1ccccc1)C(=O)O)C(=O)N[C@H](C(N)=O)C(C)C (HELM PEPTIDE1{[O=C(/C=C/C(=O)[*:2])NCC(=O)NCC(=O)N[C@@H](Cc1ccccc1)C(=O)O].Q.F.L.V.[am]}$$$$V2.0)", "%", 57),
    ("CC(C)[C@H](NC(=O)[C@H](C)NC(=O)[C@@H](NC(=O)[C@H](CCC(N)=O)NC(=O)/C=C/C(=O)NCC(=O)NCC(=O)N[C@@H](Cc1ccccc1)C(=O)O)C1CCCCC1)C(N)=O (HELM PEPTIDE1{[O=C(/C=C/C(=O)[*:2])NCC(=O)NCC(=O)N[C@@H](Cc1ccccc1)C(=O)O].Q.[O=C([C@@H](N[*:1])C1CCCCC1)[*:2]].A.V.[am]}$$$$V2.0)", "%", 31),
]

Let us examine a further case.
Challenge: State its inhibition for this compound: CC(=O)NC[C@H](NC(=O)/C=C/C(=O)N[C@@H](C)C(=O)NCC(=O)N[C@@H](Cc1ccccc1)C(=O)O)C(=O)N[C@H](C(=O)N[C@H](C(=O)N[C@H](C(N)=O)C(C)C)C(C)C)C1CCCCC1 ({Fumaroyl(AlaGlyPheOH)}-[Dap](Ac)[Chg]VV-NH2)
Response given: 46

###

Below, each entry is listed with its recorded inhibition.
targetOrSystem: UniProtKB Q95PM0
measurementDescription: Inhibition of Trypanosoma brucei rhodesiense rhodesain after 12 hrs by fluorescence spectroscopy-based on-bead assay
Parameters: concentration or dose not given beside the values
conditionDescription: concentration not given here
Square brackets hold non-standard residues; d marks the D form. Peptide text beside a SMILES is read from it. * marks the point of attachment. Fumaroyl(GlyGlyPheOH) = O=C(/C=C/C(=O)*)NCC(=O)NCC(=O)N[C@@H](Cc1ccccc1)C(=O)O; Chg = N[C@H](C(=O)O)C1CCCCC1; Dap = NC[C@H](N)C(=O)O
In your response, the unit should come after the numeric value.

# molecule, targetOrSystem, result
measured = [
    ("CC(C)[C@H](NC(=O)[C@H](C)NC(=O)[C@H](Cc1ccccc1)NC(=O)[C@H](C)NC(=O)/C=C/C(=O)NCC(=O)NCC(=O)N[C@@H](Cc1ccccc1)C(=O)O)C(N)=O (HELM PEPTIDE1{[O=C(/C=C/C(=O)[*:2])NCC(=O)NCC(=O)N[C@@H](Cc1ccccc1)C(=O)O].A.F.A.V.[am]}$$$$V2.0)", "UniProtKB Q95PM0", "45%"),
]

Challenge: Provide one value: measured inhibition of CC(=O)NC[C@H](NC(=O)/C=C/C(=O)NCC(=O)NCC(=O)N[C@@H](Cc1ccccc1)C(=O)O)C(=O)N[C@H](C(=O)N[C@H](C(=O)N[C@H](C(N)=O)C(C)C)C(C)C)C1CCCCC1 ({Fumaroyl(GlyGlyPheOH)}-[Dap](Ac)[Chg]VV-NH2)
Response given: 52%

Challenge: Check the records and state inhibition for CC[C@H](C)[C@H](NC(=O)[C@H](CC(N)=O)NC(=O)/C=C/C(=O)N[C@@H](C)C(=O)NCC(=O)N[C@@H](Cc1ccccc1)C(=O)O)C(=O)N[C@@H](C)C(=O)N[C@H](C(N)=O)C(C)C (HELM PEPTIDE1{[C[C@H](NC(=O)/C=C/C(=O)[*:2])C(=O)NCC(=O)N[C@@H](Cc1ccccc1)C(=O)O].N.I.A.V.[am]}$$$$V2.0)
Response given: 17%

###

measurementDescription: Inhibition of Plasmodium falciparum falcipain-2 after 12 hrs by fluorescence spectroscopy-based on-bead assay
Set-up: concentration or dose not given beside the values
conditionDescription: concentration not given here
Peptide text beside a SMILES is read from it.
Classification field: fulfilled = inhibition at or over 50%; not fulfilled = inhibition under 50%.

For orientation, consider the following solved cases.
# molecule, qualitativeLabel
rows = [
    ("CC(C)[C@H](NC(=O)[C@H](C)NC(=O)[C@@H](NC(=O)[C@H](CCC(N)=O)NC(=O)/C=C/C(=O)N[C@@H](C)C(=O)NCC(=O)N[C@@H](Cc1ccccc1)C(=O)O)c1ccccc1)C(N)=O (HELM PEPTIDE1{[C[C@H](NC(=O)/C=C/C(=O)[*:2])C(=O)NCC(=O)N[C@@H](Cc1ccccc1)C(=O)O].Q.[Phg].A.V.[am]}$$$$V2.0)", "fulfilled"),
    ("CC(C)[C@H](NC(=O)[C@@H](NC(=O)[C@@H](NC(=O)[C@H](Cc1ccccc1)NC(=O)/C=C/C(=O)NCC(=O)NCC(=O)N[C@@H](Cc1ccccc1)C(=O)O)C1CCCCC1)C(C)C)C(N)=O (HELM PEPTIDE1{[O=C(/C=C/C(=O)[*:2])NCC(=O)NCC(=O)N[C@@H](Cc1ccccc1)C(=O)O].F.[O=C([C@@H](N[*:1])C1CCCCC1)[*:2]].V.V.[am]}$$$$V2.0)", "not fulfilled"),
    ("CC(C)[C@H](NC(=O)[C@@H](NC(=O)[C@@H](NC(=O)[C@H](CCC(N)=O)NC(=O)/C=C/C(=O)N[C@@H](C)C(=O)NCC(=O)N[C@@H](Cc1ccccc1)C(=O)O)c1ccccc1)C(C)C)C(N)=O (HELM PEPTIDE1{[C[C@H](NC(=O)/C=C/C(=O)[*:2])C(=O)NCC(=O)N[C@@H](Cc1ccccc1)C(=O)O].Q.[Phg].V.V.[am]}$$$$V2.0)", "not fulfilled"),
    ("CC(=O)NC[C@H](NC(=O)/C=C/C(=O)NCC(=O)NCC(=O)N[C@@H](Cc1ccccc1)C(=O)O)C(=O)N[C@@H](CC(C)C)C(=O)N[C@@H](C)C(=O)N[C@H](C(N)=O)C(C)C (HELM PEPTIDE1{[O=C(/C=C/C(=O)[*:2])NCC(=O)NCC(=O)N[C@@H](Cc1ccccc1)C(=O)O].[O=C([C@H](CN[*:3])N[*:1])[*:2]].L.A.V.[am]}|PEPTIDE2{[ac]}$PEPTIDE1,PEPTIDE2,2:R3-1:R2$$$V2.0)", "not fulfilled"),
    ("CC(C)C[C@H](NC(=O)[C@@H](NC(=O)[C@H](CCC(N)=O)NC(=O)/C=C/C(=O)N[C@@H](C)C(=O)NCC(=O)N[C@@H](Cc1ccccc1)C(=O)O)c1ccccc1)C(=O)N[C@H](C(N)=O)C(C)C (HELM PEPTIDE1{[C[C@H](NC(=O)/C=C/C(=O)[*:2])C(=O)NCC(=O)N[C@@H](Cc1ccccc1)C(=O)O].Q.[Phg].L.V.[am]}$$$$V2.0)", "not fulfilled"),
    ("CC(C)C[C@H](NC(=O)[C@H](CCC(N)=O)NC(=O)/C=C/C(=O)N[C@@H](C)C(=O)NCC(=O)N[C@@H](Cc1ccccc1)C(=O)O)C(=O)N[C@@H](C)C(=O)N[C@H](C(N)=O)C(C)C (HELM PEPTIDE1{[C[C@H](NC(=O)/C=C/C(=O)[*:2])C(=O)NCC(=O)N[C@@H](Cc1ccccc1)C(=O)O].Q.L.A.V.[am]}$$$$V2.0)", "fulfilled"),
    ("CC(C)[C@H](NC(=O)[C@H](C)NC(=O)[C@H](Cc1ccccc1)NC(=O)[C@H](CC(N)=O)NC(=O)/C=C/C(=O)NCC(=O)NCC(=O)N[C@@H](Cc1ccccc1)C(=O)O)C(N)=O (HELM PEPTIDE1{[O=C(/C=C/C(=O)[*:2])NCC(=O)NCC(=O)N[C@@H](Cc1ccccc1)C(=O)O].N.F.A.V.[am]}$$$$V2.0)", "fulfilled"),
    ("CC(C)C[C@H](NC(=O)[C@H](CC(N)=O)NC(=O)/C=C/C(=O)NCC(=O)NCC(=O)N[C@@H](Cc1ccccc1)C(=O)O)C(=O)N[C@@H](C)C(=O)N[C@H](C(N)=O)C(C)C (HELM PEPTIDE1{[O=C(/C=C/C(=O)[*:2])NCC(=O)NCC(=O)N[C@@H](Cc1ccccc1)C(=O)O].N.L.A.V.[am]}$$$$V2.0)", "not fulfilled"),
]

Challenge: Given the entry CC(C)[C@H](NC(=O)[C@H](C)NC(=O)[C@@H](NC(=O)[C@H](Cc1ccccc1)NC(=O)/C=C/C(=O)N[C@@H](C)C(=O)NCC(=O)N[C@@H](Cc1ccccc1)C(=O)O)C1CCCCC1)C(N)=O (HELM PEPTIDE1{[C[C@H](NC(=O)/C=C/C(=O)[*:2])C(=O)NCC(=O)N[C@@H](Cc1ccccc1)C(=O)O].F.[O=C([C@@H](N[*:1])C1CCCCC1)[*:2]].A.V.[am]}$$$$V2.0) , answer whether its inhibition meets or surpasses 50%.
Response given: not fulfilled

Challenge: Dear colleague, could you confirm whether CC(C)[C@H](NC(=O)[C@@H](NC(=O)[C@H](Cc1ccccc1)NC(=O)[C@H](Cc1ccccc1)NC(=O)/C=C/C(=O)NCC(=O)NCC(=O)N[C@@H](Cc1ccccc1)C(=O)O)C(C)C)C(N)=O (HELM PEPTIDE1{[O=C(/C=C/C(=O)[*:2])NCC(=O)NCC(=O)N[C@@H](Cc1ccccc1)C(=O)O].F.F.V.V.[am]}$$$$V2.0) has inhibition at or above 50%?
Response given: fulfilled
